assayed-target: FGFR2 (Homo sapiens (Human), UniProt P21802)
Sequence (P21802 22-821): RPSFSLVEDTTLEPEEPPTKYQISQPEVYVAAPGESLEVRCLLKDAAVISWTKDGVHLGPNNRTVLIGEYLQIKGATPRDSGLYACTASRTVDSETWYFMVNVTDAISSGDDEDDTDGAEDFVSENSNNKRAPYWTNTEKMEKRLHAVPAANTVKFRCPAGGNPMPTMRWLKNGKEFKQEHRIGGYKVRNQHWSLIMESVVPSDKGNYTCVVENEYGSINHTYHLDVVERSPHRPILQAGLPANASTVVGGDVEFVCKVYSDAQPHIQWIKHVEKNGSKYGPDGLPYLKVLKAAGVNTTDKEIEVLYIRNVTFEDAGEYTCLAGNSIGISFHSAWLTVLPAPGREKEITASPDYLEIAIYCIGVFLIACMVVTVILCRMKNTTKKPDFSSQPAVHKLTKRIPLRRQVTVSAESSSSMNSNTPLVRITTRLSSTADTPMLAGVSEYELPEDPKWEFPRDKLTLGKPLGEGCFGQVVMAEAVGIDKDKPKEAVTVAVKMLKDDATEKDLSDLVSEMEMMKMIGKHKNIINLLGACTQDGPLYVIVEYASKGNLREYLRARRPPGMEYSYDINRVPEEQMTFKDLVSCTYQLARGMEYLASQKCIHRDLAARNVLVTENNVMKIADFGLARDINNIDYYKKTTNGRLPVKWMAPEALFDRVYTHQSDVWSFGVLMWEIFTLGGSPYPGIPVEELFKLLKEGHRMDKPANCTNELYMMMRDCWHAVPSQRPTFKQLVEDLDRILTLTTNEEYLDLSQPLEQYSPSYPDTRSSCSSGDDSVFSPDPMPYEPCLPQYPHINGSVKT
assay-details: FGFR2 Biochemical Caliper Assay
measured-parameter: IC50

Use these answered entries as a reference point.
[
  {
    "compound": "C=CC(=O)N1CCC(c2c(-c3csc(CN4CCOCC4)c3)c3c(N)ncnc3n2C)C1 (centres unmarked)",
    "measured-parameter": "IC50",
    "data-value": "1000 to 100000 nM"
  },
  {
    "compound": "C=C(C)C(=O)Nc1ccc(-c2c(-c3ccc(Oc4cccc(COC)n4)cc3)c3c(N)ncnc3n2C)cc1",
    "measured-parameter": "IC50",
    "data-value": "< 100 nM"
  },
  {
    "compound": "C=CC(=O)Nc1ccc(-c2c(C3CCC(C(=O)NC)CC3)c3c(N)ncnc3n2C)cc1 (centres unmarked)",
    "measured-parameter": "IC50",
    "data-value": "1000 to 100000 nM"
  },
  {
    "compound": "CC#CC(=O)N1CCC(c2c(-c3ccc(Oc4cccc(C)n4)cc3)c3c(N)ncnc3n2C)CC1",
    "measured-parameter": "IC50",
    "data-value": "100 to 250 nM"
  },
  {
    "compound": "C=C(C)C(=O)Nc1ccc(-c2c(-c3ccc4c(cnn4C(C)C)c3)c3c(N)ncnc3n2C)cc1",
    "measured-parameter": "IC50",
    "data-value": "250 to 1000 nM"
  },
  {
    "compound": "C=CC(=O)Nc1ccc(-c2c(-c3ccc(Oc4ncc(N)cn4)c(OC)c3)c3c(N)ncnc3n2C)cc1",
    "measured-parameter": "IC50",
    "data-value": "< 100 nM"
  }
]

Sure, the documented IC50 for "C=C(C)C(=O)Nc1ccc(-c2c(-c3ccc(C(=O)NCC4COC4)cc3)c3c(N)ncnc3n2C)cc1" is 100 to 250 nM

Reported IC50 ( "C=CS(=O)(=O)N1CCC(n2cc(-c3c(-c4ccc(Oc5cccc(C)n5)cc4)c4c(N)ncnc4n3C)cn2)CC1" ) = < 100 nM

// sample "C=C(C)C(=O)Nc1ccc(-c2c(-c3ccc(CC(=O)N(C)C)cc3)c3c(N)ncnc3n2C)cc1" , its IC50 was 1000 to 100000 nM

Value of IC50 reported for the compound "C=C(C)C(=O)Nc1ccc(-c2c(-c3ccc(S(=O)(=O)N(C)C4CCCC4)cc3)c3c(N)ncnc3n2C)cc1" is 250 to 1000 nM

The reported IC50 of the compound "C=CC(=O)N1CCC(n2ncc(-c3c(-c4ccc(Oc5cccc(C)n5)cc4)c4c(N)ncnc4n3C)c2C)CC1" was < 100 nM

Sample "C=C(C)C(=O)Nc1ccc(-c2c(-c3ccc(Oc4cccc(C)n4)cc3)c3c(N)ncnc3n2CCOC)cc1" ; IC50 observed: < 100 nM

Reported IC50 for C=CC(=O)N1CCC(c2c(-c3ccc(CN4CCC(C)(C)C4)cc3)c3c(N)ncnc3n2C)C1 (centres unmarked) was 1000 to 100000 nM

Memo: "C=C(C)C(=O)Nc1ccc(-c2c(-c3ccc(C(=O)N4CCC(OC)CC4)cc3)c3c(N)ncnc3n2C)cc1" , reported IC50: 1000 to 100000 nM

// IC50 lookup, compound = "C=C(C)C(=O)Nc1ccc(-c2c(-c3cc(F)c(Oc4ccccn4)c(F)c3)c3c(N)ncnc3n2C)cc1" , result: 250 to 1000 nM

Looking up C=C(C)C(=O)Nc1ccc(-c2c(-c3ccc(C(=O)N4CCCC(C)C4)cc3)c3c(N)ncnc3n2C)cc1 (centres unmarked) , I see its IC50 listed as < 100 nM

Input "C=C(C)C(=O)Nc1ccc(-c2c(-c3ccc(Oc4nccc(C)n4)cc3)c3c(N)ncnc3n2C)cc1" . Output IC50: < 100 nM

// "C=C(C)C(=O)Nc1ccc(-c2c(-c3ccc(Oc4nccc(C)n4)c(F)c3)c3c(N)ncnc3n2CC)cc1" : IC50 value = < 100 nM

So, C=CC(=O)N1CCC(c2c(-c3ccc(C(O)C4CC4)cc3)c3c(N)ncnc3n2C)C1 (centres unmarked) ? Its IC50 was 250 to 1000 nM

# IC50 (compound: "C=C(C)C(=O)Nc1ccc(-c2c(-c3ccc(C(=O)N(C)CCOC)cc3)c3c(N)ncnc3n2C)cc1" ) is 1000 to 100000 nM

---

Collected IC50 values appear next to each entry.
assayed-target: FGFR2 (Homo sapiens (Human), UniProt P21802)
assay-details: Biochemical FGFR2 Caliper assay

# count of solved cases: 5
[
  {
    "compound": "C=C(C)C(=O)Nc1ccc(-c2c(C3=C(F)C[C@@H](C(=O)N4CCCC4)CC3)c3c(N)ncnc3n2C)cc1 (single isomer, unassigned)",
    "IC50": "1000 to 100000 nM"
  },
  {
    "compound": "C=CC(=O)Nc1ccc(-c2c(C3=CC[C@@H](C(=O)N4CCCC4)CC3)c3c(C)ncnc3n2C)c(C)c1 (single isomer, unassigned)",
    "IC50": "< 100 nM"
  },
  {
    "compound": "C#Cc1ncc(-c2c(C3=CC[C@H](C(=O)N4CCCC4)CC3)c3c(N)ncnc3n2C)c(C)c1F (single isomer, unassigned)",
    "IC50": "< 100 nM"
  },
  {
    "compound": "C=CC(=O)Nc1ccc(-c2c(-c3cc4ccccc4[nH]3)c3c(N)ncnc3n2C)cc1",
    "IC50": "< 100 nM"
  },
  {
    "compound": "C=CC(=O)N1CC(F)C(c2c(-c3ccc(Oc4cccc(C)n4)cc3)c3c(N)ncnc3n2C)C1 (stereo not shown)",
    "IC50": "250 to 1000 nM"
  }
]

Notebook: "C=C(C)C(=O)Nc1nn(C)c(-c2c(-c3ccc(Oc4nccc(C)n4)cc3)c3c(N)ncnc3n2C)c1C" , IC50 read as 1000 to 100000 nM

Briefly, IC50 measured for "COCC#Cc1cc(C)c(-c2c(C3=CC[C@H](C(=O)N4CCC[C@H]4C)CC3)c3c(N)ncnc3n2C)cn1" : < 100 nM

Form: compound = "C=Cc1nc2ccc(-c3c(-c4ccc(C(=O)N5CCCC5)cc4)c4c(N)ncnc4n3C)cc2n1C" ; IC50 = 1000 to 100000 nM

Reported IC50 ( "C=C(C)C(=O)Nc1ccc(-c2c(-c3cnn(C4CCCC4)c3)c3c(N)ncnc3n2C)cc1" ) = 250 to 1000 nM

According to the records, this compound "C#Cc1ccc(-c2c(-c3ccccc3)c3c(N)ncnc3n2C)cn1" displays IC50 of < 100 nM

The recorded IC50 for C=C(C)C(=O)Nc1ccc(-c2c(C3=CCC(c4nc(C)no4)CC3)c3c(N)ncnc3n2C)cc1 (stereo not shown) is 1000 to 100000 nM

Just so you know, measured IC50 for "C=C(C)C(=O)Nc1ccc(-c2c(-c3ccc(C(=O)N[C@H]4C[C@@H](F)C4)c(OC)c3)c3c(N)ncnc3n2C)cc1" came out at < 100 nM

IC50 reported for this compound "C#Cc1cc(C)c(-c2c(-c3ccc(Oc4nccc(C)n4)c(F)c3)c3c(C)ncnc3n2C)cn1" : < 100 nM

---

assayed-target: FGFR2 (Homo sapiens (Human), UniProt P21802)
assay-details: Biochemical FGFR2 Caliper assay
measured-parameter: IC50

Check out these entries, answers already filled in.
[
  {
    "compound": "C#Cc1ncc(-c2c(C3=CC[C@@H](C(=O)N4CCCC4)CC3)c3c(C)ncnc3n2C)c(C)n1 (single isomer, unassigned)",
    "IC50": "< 0.1 µM"
  },
  {
    "compound": "C=C(C)C(=O)Nc1cc(C)c(-c2c(-c3ccc(Oc4cccc(C)n4)c(F)c3)c3c(N)ncnc3n2C)cn1",
    "IC50": "1 to 100 µM"
  },
  {
    "compound": "C=C(C)C(=O)Nc1ccc(-c2c(C3=CCN(C(=O)OCc4ccccc4)CC3)c3c(N)ncnc3n2C)cc1",
    "IC50": "1 to 100 µM"
  },
  {
    "compound": "C=C(C)C(=O)Nc1ccc(-c2c(-c3ccc(-c4cccc(O)c4)c(C#N)c3)c3c(N)ncnc3n2C)cc1",
    "IC50": "1 to 100 µM"
  }
]

Form: compound = C=C(C)C(=O)Nc1ccc(-c2c(C3=CC[C@]4(CC3)CCN(C)C4=O)c3c(N)ncnc3n2C)cc1 (single isomer, unassigned) ; IC50 = < 0.1 µM

GET /value?item= "C#Cc1cc2c(cn1)-c1c(-c3ccc(Oc4nccc(C)n4)c(F)c3)c3c(C)ncnc3n1CCC2" &field=IC50 returns < 0.1 µM

Note to self: IC50 recorded for "C=CC(=O)Nc1ccc(-c2c(-c3ccc(Oc4ccccc4)cc3)c3c(C)ncnc3n2C(C)C)cc1" was 1 to 100 µM

IC50 in this record for C#Cc1cc(C)c(-c2c(C3=CC[C@H](C(=O)N4CCC[C@H]4C)CC3)c3c(N)ncnc3n2C)c(F)n1 [Example 1319] : < 0.1 µM

The recorded IC50 for entry C=C(C)C(=O)Nc1ccc(-c2nn3ccnc(N)c3c2C2=CC[C@H](C(=O)N3CCCC3)CC2)cc1 (single isomer, unassigned) equals 1 to 100 µM

Value of measured IC50 for the entry "CC1=CCN(c2ccc(-c3c(-c4ccc(Oc5nccc(C)n5)cc4)c4c(N)ncnc4n3C)cn2)C1=O" : < 0.1 µM

Noted for "C=C(C)C(=O)Nc1ccc(-c2c(-c3ccc4[nH]nc(C)c4c3)c3c(N)ncnc3n2C)cc1" : its IC50 reads 1 to 100 µM
